IC50 reference
# MEASURED_ON: hERG channel (Homo sapiens, UniProt Q12809)
# Construct: expressed in transfected cells
# Sequence (Q12809 whole entry): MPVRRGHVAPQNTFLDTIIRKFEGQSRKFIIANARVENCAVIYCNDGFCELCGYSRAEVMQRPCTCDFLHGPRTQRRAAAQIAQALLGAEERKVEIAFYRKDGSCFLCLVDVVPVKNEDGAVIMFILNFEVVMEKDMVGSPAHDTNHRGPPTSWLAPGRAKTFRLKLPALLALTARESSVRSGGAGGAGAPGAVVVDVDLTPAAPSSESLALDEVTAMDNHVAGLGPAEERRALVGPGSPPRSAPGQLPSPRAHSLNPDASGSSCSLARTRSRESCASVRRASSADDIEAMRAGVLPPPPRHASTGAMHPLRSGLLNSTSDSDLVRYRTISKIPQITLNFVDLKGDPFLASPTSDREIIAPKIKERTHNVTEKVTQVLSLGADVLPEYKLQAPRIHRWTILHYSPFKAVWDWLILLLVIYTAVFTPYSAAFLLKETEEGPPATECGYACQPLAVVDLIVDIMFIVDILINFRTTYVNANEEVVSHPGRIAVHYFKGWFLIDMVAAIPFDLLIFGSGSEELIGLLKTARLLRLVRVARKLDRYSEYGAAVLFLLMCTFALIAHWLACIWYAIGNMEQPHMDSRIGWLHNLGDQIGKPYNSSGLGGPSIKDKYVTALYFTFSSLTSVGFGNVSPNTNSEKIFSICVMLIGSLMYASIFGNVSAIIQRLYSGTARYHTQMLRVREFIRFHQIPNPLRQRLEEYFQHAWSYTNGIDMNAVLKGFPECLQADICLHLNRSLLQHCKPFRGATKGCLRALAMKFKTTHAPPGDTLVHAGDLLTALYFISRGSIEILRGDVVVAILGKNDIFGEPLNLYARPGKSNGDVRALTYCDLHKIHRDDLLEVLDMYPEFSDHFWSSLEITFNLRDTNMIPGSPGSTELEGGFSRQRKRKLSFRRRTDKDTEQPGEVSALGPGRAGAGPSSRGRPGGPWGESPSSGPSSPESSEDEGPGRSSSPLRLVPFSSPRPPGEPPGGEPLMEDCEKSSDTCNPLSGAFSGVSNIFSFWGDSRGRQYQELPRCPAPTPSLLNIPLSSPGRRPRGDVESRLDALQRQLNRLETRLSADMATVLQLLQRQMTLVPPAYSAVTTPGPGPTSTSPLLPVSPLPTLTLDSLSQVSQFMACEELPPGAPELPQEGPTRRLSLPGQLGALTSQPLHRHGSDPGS
# EXPERIMENTAL_PROTOCOL: hERG electrophysiology, automated whole-cell patch clamp (Patchliner)
# Format: cell-based
# CONDITION_CONTEXT: hERG channel, whole-cell patch clamp

Use the examples below as a reference point.
O=C1NC[C@@H]2C[C@H](c3c(O)ccc(Cl)c3Cl)CN12 : > 30 µM
O=C1O[C@@H](CN2CCOCC2)[C@@H]2C[C@H](c3c(O)ccc(Cl)c3Cl)CN12 (single isomer, unassigned) : > 30 µM
O=C(C[C@@H](O)CO)N1CC(=O)N2C[C@@H](c3c(O)ccc(Cl)c3Cl)C[C@H]2C1 : > 30 µM

// fetch IC50; item: C[C@H](O)[C@H](CO)N1CC(=O)N2C[C@@H](c3c(O)ccc(Cl)c3Cl)C[C@H]2C1 (relative stereo) ; system: hERG channel (Homo sapiens, UniProt Q12809) > 30 µM

// fetch IC50; item: `C[C@@H]1NC[C@@H]2C[C@H](c3c(O)ccc(Cl)c3Cl)CN2C1=O` ; system: hERG channel (Homo sapiens, UniProt Q12809) < 30 µM

// fetch IC50; item: NCC1OC[C@@H]2C[C@H](c3c(O)ccc(Cl)c3Cl)CCN2C1=O (stereo partly shown) ; system: hERG channel (Homo sapiens, UniProt Q12809) < 30 µM

// fetch IC50; item: O=C1C[C@@H](N2CC(O)C2)C[C@@H]2C[C@H](c3c(O)ccc(Cl)c3Cl)CN12 (single isomer, unassigned) ; system: hERG channel (Homo sapiens, UniProt Q12809) > 30 µM
